koff: recorded values
- Target: T1, human heterodimeric single-chain CD3εγ extracellular domain (human, UniProt P07766 23-126; P09693 23-116)
- T1 construct: extracellular domain; Produced in-house; also called scCD3γε; human CD3ge
- T1 sequence (P07766 23-126, chain 1 of 2): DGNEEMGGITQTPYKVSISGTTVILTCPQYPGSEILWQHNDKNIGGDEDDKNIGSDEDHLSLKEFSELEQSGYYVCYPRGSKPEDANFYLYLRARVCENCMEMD
- T1 sequence (P09693 23-116, chain 2 of 2): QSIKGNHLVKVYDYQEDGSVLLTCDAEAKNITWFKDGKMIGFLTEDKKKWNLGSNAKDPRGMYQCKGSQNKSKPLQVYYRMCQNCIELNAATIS
- Protocol: SPR, rabbit IgG captured, human single-chain CD3εγ ECD injected
Endpoint label: koff (s⁻¹)

binder="clone-06 (antibody, V domains shown, Recombinant rabbit IgG; also called Clone 6) VH: QSVEESGGRLVTPGTPLTLTCTVSGFPLSSYAMIWVRQAPGKGLEWIGMILRAGNIYYASWVKGRVTISKTSTTVDLKITSPTTEDTATYFCARRHYNREGYPIGIGDLWGPGTLVTVSS VL: AQVLTQTPSSVSAAVGGTVTISCQSSESVYNNKRLSWFQQKPGQPPKQLIYTASSLASGVPSRFKGSGSGTQFTLTISDLECDDAATYYCQGEFTCSNADCFTFGGGTEVVVKG" endpoint_label=koff units_of_measure=s⁻¹ measured=0.00138
binder="clone-09 (antibody, V domains shown, Recombinant rabbit IgG) VH: QSLEESGGRLVTPGTPLTLTCTVSGFPLNRYAMLWVRQAPGKGLEWIGLITRADKKYYASWAKGRFTISKTSTTVDLEITGPTTEDTATYFCARRHYNTDGYPVAIGDLWGPGTLVTVSS VL: AQVLTQTPSSVSAAVGGTVTISCQSNENIYSNNRLSWFQQKPGQPPNQLIYSASSLASGVPSRFKGSGSGTQFTLTISDLECDDAATYYCQGEFNCNSADCFTFGGGTEVVVKG" endpoint_label=koff units_of_measure=s⁻¹ measured=0.000688
binder="clone-10 (antibody, V domains shown, Recombinant rabbit IgG) VH: QSLEESGGRLVTPGTPLTLTCTVSGFPLSSFAMLWVRQAPGKGLEWIGMIMRAHNMYYASWAKGRFTISKTSTTVDLEITSPTTEDTATYFCARRHYNTYGYPIAIGDLWGPGTLVTVSS VL: AQVLTQTPSSVSAAVGGTATISCQSNENIYSNNRLSWFQQKAGQPPNQLIYSASSLASGVPSRFKGSGSGTQFTLTISDLECDDAATYYCQGEFSCSSADCFTFGGGTEVVVKG" endpoint_label=koff units_of_measure=s⁻¹ measured=0.00126
